Task for the reader: assign each of the following compounds its reported viability.
Experiment: growth inhibitors of H69AR lung tumor, primary screen, human, duplicate replicates (AID 580);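 note: 100% = mean luminescence of untreated wells and 0% = no signal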
Details: H69AR lung tumor cells viability, ATP luminescence, 72 h; at 10 µM; hits give low values
One number for each entry, in %.

Before answering, review these 4 worked examples.
- compound: "Cc1cc(C)cc(NC(=O)c2nnn(Cc3cc(C)ccc3C)c2N)c1"
  unit.name: "%"
  viability: 88.1
- compound: "Cc1c(NC(=O)C2CCCNC2=O)c(=O)n(-c2ccccc2)n1C (stereo not given)"
  unit.name: "%"
  viability: 107
- compound: "O=C(Nc1ccccc1C(=O)N1CCOCC1)C1COc2ccccc2O1 (stereo not given)"
  unit.name: "%"
  viability: 103
- compound: "Cc1nnc2c3ccccc3c(-c3ccccc3)nn12"
  unit.name: "%"
  viability: 68.1

Hello, I would appreciate it if you could give viability for each entry below.
1. COc1ccc(C(C)NC(=O)c2ccoc2C)cc1OC (stereo not given)
2. CN(C)Cc1c(O)ccc2oc(Cc3ccccc3)cc12
3. COc1ccc(C2(C(=O)Nc3c(C)n(C)n(-c4ccccc4)c3=O)CCCC2)cc1OC
4. COc1ccccc1CNS(=O)(=O)c1cccc(S(=O)(=O)N2CCOCC2)c1
5. CCCN1C(=O)c2cc(C(=O)O)ccc2C1O (stereo not given)
6. O=C(Cn1ncc2c(=O)oc3ccccc3c21)Nc1nc2ccccc2s1

// result
1. 89.8
2. 91
3. 106
4. 91.7
5. 103
6. 102

Hello, I would appreciate it if you could give viability for each entry below.
1. COc1cc(C2c3c(oc4c(C)cc(C)cc4c3=O)C(=O)N2Cc2cccnc2)ccc1O (stereo not given)
2. CCN(CC)C(=O)C1=C(C)NC(=O)NC1c1c(F)cccc1Cl (stereo not given)
3. Cc1ccc(-c2ccc(=O)n(CCC(=O)NCCN3CCCCC3C)n2)cc1 (stereo not given)
4. Cc1ccc(-n2c(N)c(C(N)=O)sc2=S)cc1
5. CC1CCCCN1CCNS(=O)(=O)c1ccc2c(c1)oc(=O)n2C (stereo not given)
6. O=C(O)CC1Sc2nc3ccccc3n2C1=O (stereo not given)
7. CC(=O)OCC(=O)[C@@]1(O)CC[C@H]2[C@@H]3CCC4=CC(=O)CC[C@]4(C)[C@H]3[C@@H](O)C[C@@]21C

// result
1. 80.2
2. 101
3. 91.3
4. 87.9
5. 108
6. 102
7. 100

Hello, I would appreciate it if you could give viability for each entry below.
1. CC(C)CCNC(=O)C(c1ccco1)N(CC1CCCO1)C(=O)Cn1nnc2ccccc21 (stereo not given)
2. CCC(C(=O)Nc1ncccn1)(C(F)(F)F)C(F)(F)F
3. CCC(CC)n1[nH]c(=O)c2c(C)cc(C)nc21
4. CCn1c(SCc2cc(=O)[nH]c3ccccc23)nc2c1c(=O)n(C)c(=O)n2C
5. CC(NC(=O)c1ccco1)c1ccc2c(c1)OCCO2 (stereo not given)
6. CC(C)Oc1ccc2c(=O)c(-c3ccccc3)coc2c1
7. COc1cc(C(=O)Nc2cc(-c3ccccc3)[nH]n2)cc(OC)c1OC

// result
94.4
103
105
92
96.3
89.7
26

Hello, I would appreciate it if you could give viability for each entry below.
1. C=CCn1c(COc2cccc(C)c2)nnc1SCC(=O)NC(=O)NCc1ccco1
2. O=C1c2ccccc2C(=O)N1OCc1ccccc1
3. COc1ccc(CNc2oc(-c3cccc4ccccc34)nc2C#N)cc1
4. O=C(Cn1[nH]c(=O)c2ccccc2c1=O)OCC(=O)N1CCCc2ccccc21
5. COCCN(CCOC)C(=O)c1sc2nc(-c3ccccc3)cn2c1C
6. CCSc1nc2c(c(=O)n(C)c(=O)n2C)n1Cc1ccc(Cl)cc1
7. COCCN(CCOC)C(=O)CCn1c(=O)oc2ccccc21

// result
1. 78.2
2. 92.2
3. 96.9
4. 102
5. 93.1
6. 83
7. 89

----------
Assay: growth suppression of yeast trafficking mutant, preliminary HTS, modulators of trafficking downstream of Golgi apparatus project, 1536-format plate, OD 615 nm (AID 637)
Settings: yeast transport mutant growth, absorbance 615 nm, 18 h
Activity calls are given as the source filed them. No stated cut-off is given here; in the data, active means inhibition above about 30%; inactive means the rest.
Give your call using only these classes: active, inactive

- compound: "CCc1c(C(=O)Nc2ncn(Cc3cccc(C)c3)n2)csc1C"
  assigned.category: "inactive"
- compound: "C=CCNC(=O)CNS(=O)(=O)c1ccc(F)cc1"
  assigned.category: "inactive"
- compound: "Cc1ccc(-c2[nH]nc3c2C(c2ccoc2)C(C#N)=C(N)O3)cc1C (configuration not stated)"
  assigned.category: "inactive"

// query Lab log entry: O=C(c1cnn2c1NC(c1ccco1)CC2C(F)(F)F)N1CCN(c2cccc(Cl)c2)CC1 (configuration not stated) — outcome as called in the assay?
// result inactive

// query Lab log entry: Cc1ccc(NC(=O)COC(=O)c2ccn(C)n2)cc1 — outcome as called in the assay?
// result inactive

// query Lab log entry: FC(F)Oc1cccc2cccnc12 — outcome as called in the assay?
// result inactive

// query Lab log entry: Cc1cc2c(c(=O)o1)C(C13C=CC(CC1)C3)C(C#N)=C(N)O2 (configuration not stated) — outcome as called in the assay?
// result inactive

// query Lab log entry: COc1ccccc1-c1noc(-c2ccco2)n1 — outcome as called in the assay?
// result inactive

// query Lab log entry: CCc1ccc2[nH]c(=O)c(C(c3nnnn3CC3CCCO3)N3CCCc4ccccc43)cc2c1 (configuration not stated) — outcome as called in the assay?
// result inactive

// query Lab log entry: C[C@]12CC[C@@H]3c4ccc(OC(=O)c5ccccc5)cc4CC[C@H]3[C@@H]1CC[C@@H]2O — outcome as called in the assay?
// result active

// query Lab log entry: COCc1nnc(SCC(=O)NC(C)c2ccccc2)n1-c1ccccc1 (configuration not stated) — outcome as called in the assay?
// result inactive

// query Lab log entry: COc1cccc(Nc2c(F)c(F)c(F)c(F)c2C(=O)O)c1 — outcome as called in the assay?
// result inactive

// query Lab log entry: Cc1cc(C)n(S(=O)(=O)c2cc(C(=O)O)c(Cl)cc2Cl)n1 — outcome as called in the assay?
// result inactive

// query Lab log entry: CC(=O)OC[C@H]1O[C@@H](n2ncc(=O)[nH]c2=O)[C@H](OC(C)=O)[C@@H]1OC(C)=O — outcome as called in the assay?
// result inactive

// query Lab log entry: CCOC(=O)CSc1nnc(CNC(=O)c2cccs2)n1-c1cc(OC)ccc1OC — outcome as called in the assay?
// result inactive

// query Lab log entry: CCOC(=O)N1CCN(C(=O)CN(C)S(=O)(=O)c2ccc(OC)c(OC)c2)CC1 — outcome as called in the assay?
// result inactive

// query Lab log entry: COc1ccc(OC)c(-n2nnnc2SCC(=O)NCc2ccc3c(c2)OCO3)c1 — outcome as called in the assay?
// result inactive

// query Lab log entry: COc1ccc(C(=O)NCCC(C)C)cc1S(=O)(=O)N1CCOCC1 — outcome as called in the assay?
// result inactive

// query Lab log entry: CC1(C)CC(=O)c2sc(NS(C)(=O)=O)nc2C1 — outcome as called in the assay?
// result inactive

// query Lab log entry: CC(=O)Nc1ccc(Cc2ccncc2)cc1 — outcome as called in the assay?
// result inactive

// query Lab log entry: CCOc1ccc(CNc2ccc3c(c2)ncn3C)cc1 — outcome as called in the assay?
// result inactive

// query Lab log entry: CCOC(=O)c1sc(NC(=O)CSc2nnc(-c3ccc(OC)cc3)n2CCOC)nc1C — outcome as called in the assay?
// result inactive

----------
Assay: growth suppression of yeast trafficking mutant, preliminary HTS, modulators of trafficking downstream of Golgi apparatus project, 1536-format plate, OD 615 nm (AID 637)
Conditions: yeast transport mutant growth, absorbance 615 nm, 18 h; hits give high values
metric.name: inhibition (%)
Numbers only, in %.

Before answering, review these 8 worked examples.
- molecule: "COC(=O)c1[nH]c(C)c(/C(O)=C2\\C(=O)C(=O)N(CCCN3CCOCC3)C2c2ccccn2)c1C (stereo unspecified)"
  metric.name: "inhibition"
  meas.value: -4.6
- molecule: "CC(=O)n1nc(-c2ccco2)nc1SCc1ccccc1"
  metric.name: "inhibition"
  meas.value: 0
- molecule: "Cc1cc(C(=O)NCc2cccnc2)no1"
  metric.name: "inhibition"
  meas.value: 1.61
- molecule: "O=C(Cn1c(NCCO)nc2ccccc21)c1ccccc1"
  metric.name: "inhibition"
  meas.value: 2.7
- molecule: "CCc1c(C)c2ccc(OCC(=O)OC)cc2oc1=O"
  metric.name: "inhibition"
  meas.value: 21.4
- molecule: "COc1ccc(C)cc1S(=O)(=O)N(C)CC(=O)Nc1ccc2c(c1)OCO2"
  metric.name: "inhibition"
  meas.value: -4.92
- molecule: "O=C(COC(=O)c1ccco1)NCc1cccs1"
  metric.name: "inhibition"
  meas.value: 0
- molecule: "CCOC(=O)c1cccc(NC(=O)CSc2nc3cccnc3n2C)c1"
  metric.name: "inhibition"
  meas.value: 1.8

Hello, I would appreciate it if you could give inhibition for each entry below.
1. Cc1nc2sc(C(c3cccc(F)c3)N3CCN(C(=O)c4ccco4)CC3)c(O)n2n1 (stereo unspecified)
2. COC(=O)c1cccc(S(=O)(=O)N2CCC(C)CC2)c1
3. CCC(=O)Oc1ccc(C/C(=N\O)c2ccc(O)cc2O)o1

// result
-9.83
-3.44
13.8
